Entries and their GI50 values follow.
# System: RXF 393
# ASSAY PROCEDURE: Growth inhibition of human RXF 393 cells incubated for 48 hrs by sulforhodamine B assay
# Format: functional
MEASUREMENT LABEL: GI50 (nM)

INSERT INTO assay_data (entry_smiles, measurement_label, unit_name, numeric_value) VALUES
  ('COc1cc2nc(-c3ccc(C(F)(F)F)cc3)cc(OCCCN3CCC(O)CC3)c2cc1OC', 'GI50', 'nM', 1340),
  ('COc1cc2nc(-c3ccc(Cl)cc3)cc(OCCCN3CCOCC3)c2cc1OC', 'GI50', 'nM', 1120),
  ('COc1cc2nc(-c3ccc(C(F)(F)F)cc3)cc(OCCCN3CCCCC3)c2cc1OC', 'GI50', 'nM', 1090);

---

# Tested on: SR
# ASSAY PROCEDURE: Growth inhibition of human SR cells at 10 uM incubated for 48 hrs by sulforhodamine B assay relative to control
# Assay type: functional
# RUN PARAMETERS: read-out: GI
Listed here are compounds together with their documented inhibition of growth at 10 µM.
MEASUREMENT LABEL: inhibition of growth at 10 µM

INSERT INTO assay_data (entry_smiles, result) VALUES
  ('COc1cc2nc(-c3ccc(Cl)cc3)cc(OCCCN3CCCCC3)c2cc1OC', '62%'),
  ('COc1cc2nc(-c3ccc(Cl)cc3)cc(OCCN3CCOCC3)c2cc1OC', '3%'),
  ('COc1cc2nc(-c3ccc(Cl)cc3)cc(OCCCN3CCCC3)c2cc1OC', '62%'),
  ('COc1cc2nc(-c3ccc(C(F)(F)F)cc3)cc(OCCN3CCCC3)c2cc1OC', '13%'),
  ('COc1cc2nc(-c3ccco3)cc(OCCCN3CCC(O)CC3)c2cc1OC', '46%'),
  ('COc1cc2nc(-c3ccc(Cl)cc3)cc(OCCN3CCCCC3)c2cc1OC', '3%'),
  ('COc1cc2nc(-c3ccc(C(F)(F)F)cc3)cc(OCCN3CCCCC3)c2cc1OC', '13%');

---

# Tested on: SN12C
# ASSAY PROCEDURE: Growth inhibition of human SN12C cells at 10 uM incubated for 48 hrs by sulforhodamine B assay relative to control
# Format: functional
# RUN PARAMETERS: read-out: GI
MEASUREMENT LABEL: inhibition of growth at 10 µM (%)

INSERT INTO assay_data (entry_smiles, numeric_value) VALUES
  ('COc1cc2nc(-c3ccc(Cl)cc3)cc(OCCN3CCOCC3)c2cc1OC', 3),
  ('COc1cc2nc(-c3ccc(C(F)(F)F)cc3)cc(OCCN3CCCC3)c2cc1OC', 13),
  ('COc1cc2nc(-c3ccc(Cl)cc3)cc(OCCCN3CCC(O)CC3)c2cc1OC', 62),
  ('COc1cc2nc(-c3ccc(C(F)(F)F)cc3)cc(OCCN3CCOCC3)c2cc1OC', 13),
  ('COc1cc2nc(-c3ccc(Cl)cc3)cc(OCCN3CCCCC3)c2cc1OC', 3);

---

# System: SK-MEL-2
# ASSAY PROCEDURE: Growth inhibition of human SK-MEL-2 cells at 10 uM incubated for 48 hrs by sulforhodamine B assay relative to control
# Assay type: functional
# RUN PARAMETERS: read-out: GI
Reported inhibition of growth at 10 µM values follow for various molecules
MEASUREMENT LABEL: inhibition of growth at 10 µM (%)

INSERT INTO measurements (entry_smiles, measurement_label, numeric_value) VALUES
  ('COc1cc2nc(-c3ccc(Cl)cc3)cc(OCCN3CCCC3)c2cc1OC', 'inhibition of growth at 10 µM', 3),
  ('COc1cc2nc(-c3ccc(Cl)cc3)cc(OCCCN3CCC(O)CC3)c2cc1OC', 'inhibition of growth at 10 µM', 62),
  ('COc1cc2nc(-c3ccc(C(F)(F)F)cc3)cc(OCCN3CCC(O)CC3)c2cc1OC', 'inhibition of growth at 10 µM', 13);

---

# System: NCI-H322M
# ASSAY PROCEDURE: Growth inhibition of human NCI-H322M cells at 10 uM incubated for 48 hrs by sulforhodamine B assay relative to control
# Assay type: functional
# RUN PARAMETERS: read-out: GI
inhibition of growth at 10 µM values, listed per item
MEASUREMENT LABEL: inhibition of growth at 10 µM (%)

INSERT INTO results (entry_smiles, measurement_label, unit_name, numeric_value) VALUES
  ('COc1cc2nc(-c3ccc(Cl)cc3)cc(OCCCN3CCCC3)c2cc1OC', 'inhibition of growth at 10 µM', '%', 62),
  ('COc1cc2nc(-c3ccc(C(F)(F)F)cc3)cc(OCCN3CCCC3)c2cc1OC', 'inhibition of growth at 10 µM', '%', 13),
  ('COc1cc2nc(-c3ccc(Cl)cc3)cc(OCCN3CCCC3)c2cc1OC', 'inhibition of growth at 10 µM', '%', 3),
  ('COc1cc2nc(-c3ccsc3)cc(OCCCN3CCC(O)CC3)c2cc1OC', 'inhibition of growth at 10 µM', '%', 32),
  ('COc1cc2nc(-c3ccc(Cl)cc3)cc(OCCCN3CCC(O)CC3)c2cc1OC', 'inhibition of growth at 10 µM', '%', 62),
  ('COc1cc2nc(-c3ccc(C(F)(F)F)cc3)cc(OCCN3CCOCC3)c2cc1OC', 'inhibition of growth at 10 µM', '%', 13);
